Cited source: ChEMBL document CHEMBL1137313

Provide the reported Activity of each item.
tested on: ScN2a; experiment: Antiprion activity in ScN2a cells assessed as complete reduction of protease-resistant scrapie prion protein; type: functional, Mus musculus
Give bare numbers, in nM.

Below, each entry is followed by its recorded Activity result.
> print(dat)
                                   compound  reported.value
1  CCN(CC)CCCC(C)Nc1c2ccc(Cl)cc2nc2ccc(OC)cc12 (stereo unspecified)             500
2  COc1ccc2nc3cc(Cl)ccc3c(NCCCN3CCN(CCCN4c5ccccc5Sc5ccccc54)CC3)c2c1             500
3  COc1ccc2nc3cc(Cl)ccc3c(NCCCCN3CCN(CCCN(c4ccccc4)c4ccccc4)CC3)c2c1             500

Your task in this section: give Activity for each listed record.
1. COc1ccc2nc3cc(Cl)ccc3c(NCCCN3CCN(CCCN4c5ccccc5CCc5ccccc54)CC3)c2c1
2. c1ccc2c(c1)Sc1ccccc1N2CCCN1CCN(CCCNc2c3ccccc3nc3ccccc23)CC1
3. c1ccc2c(c1)CCc1ccccc1N2CCCN1CCN(CCCNc2c3ccccc3nc3ccccc23)CC1

500
500
500
